Origin of the recorded values: patent US12150995B2

DC50 listing for selected molecules.
Biological target: IRAK4 (Homo sapiens, UniProt Q9NWZ3)
Construct: endogenous in cells; host or cells: OCI-LY10
Sequence (Q9NWZ3 whole entry): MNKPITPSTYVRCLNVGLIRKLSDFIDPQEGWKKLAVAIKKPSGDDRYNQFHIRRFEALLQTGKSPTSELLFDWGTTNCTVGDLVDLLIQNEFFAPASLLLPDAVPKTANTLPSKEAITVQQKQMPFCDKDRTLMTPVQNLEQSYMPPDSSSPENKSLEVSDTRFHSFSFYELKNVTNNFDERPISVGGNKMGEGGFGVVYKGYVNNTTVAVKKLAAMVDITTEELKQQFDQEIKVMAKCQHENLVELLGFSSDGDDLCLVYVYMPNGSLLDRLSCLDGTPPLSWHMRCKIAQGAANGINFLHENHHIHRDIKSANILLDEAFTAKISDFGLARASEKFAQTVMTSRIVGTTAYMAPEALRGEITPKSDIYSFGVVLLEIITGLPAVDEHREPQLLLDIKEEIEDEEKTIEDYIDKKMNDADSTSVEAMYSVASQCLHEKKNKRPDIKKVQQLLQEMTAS
Experiment: IRAK4 MSD Degradation in OCI-LY10
Assay type: cell-based
Conditions: OCI-LY10 cells, Meso Scale Discovery, incubated 4 to 24 hours
Description: Degradation of IRAK4 in OCI-LY10 was quantitatively measured using Meso Scale Discovery technology. OCI-LY10 cells were seeded in 96-well plates (Corning 3799) with a density of 300,000 cells per well in 100 μL fresh media. […] The assay plates were then incubated at room temperature for 1 hour, washed 3 times with 150 μL/well TBST buffer, and 150 μL/well MSD reading buffer (Meso Scale Discovery catalog number R92TC-2) was added. […]

Cn1c(=O)n(C2CCC(=O)NC2=O)c2cccc(N3CCN(C[C@H]4CC[C@H](n5cc6cc(NC(=O)c7cccc(C(F)(F)F)n7)ccc6n5)CC4)C(C)(C)C3)c21 (stereo partly drawn); 10 to 50 nM

Please report DC50 for the following molecule: CC(C)Nc1cc(-c2ccc3cc(C#N)cnn23)ncc1C(=O)N[C@H]1CC[C@H](CN2CCC(c3cccc4c3n(C)c(=O)n4C3CCC(=O)NC3=O)CC2)CC1 (stereo partly drawn)
< 10 nM

Supply DC50 value. Item: Cn1c(=O)n(C2CCC(=O)NC2=O)c2cccc(C#CCN3CCN(C[C@H]4CC[C@H](n5cc6cc(NC(=O)c7cccc(C(F)(F)F)n7)c(C(C)(C)O)cc6n5)CC4)CC3)c21 (stereo partly drawn)
< 10 nM
